biological target: OsNAT9 (OsNAT9-GFP) (Oryza sativa, UniProt Q10ET9, E346A); assay: microscale thermophoresis
Sequence (Q10ET9 1-527 E346A): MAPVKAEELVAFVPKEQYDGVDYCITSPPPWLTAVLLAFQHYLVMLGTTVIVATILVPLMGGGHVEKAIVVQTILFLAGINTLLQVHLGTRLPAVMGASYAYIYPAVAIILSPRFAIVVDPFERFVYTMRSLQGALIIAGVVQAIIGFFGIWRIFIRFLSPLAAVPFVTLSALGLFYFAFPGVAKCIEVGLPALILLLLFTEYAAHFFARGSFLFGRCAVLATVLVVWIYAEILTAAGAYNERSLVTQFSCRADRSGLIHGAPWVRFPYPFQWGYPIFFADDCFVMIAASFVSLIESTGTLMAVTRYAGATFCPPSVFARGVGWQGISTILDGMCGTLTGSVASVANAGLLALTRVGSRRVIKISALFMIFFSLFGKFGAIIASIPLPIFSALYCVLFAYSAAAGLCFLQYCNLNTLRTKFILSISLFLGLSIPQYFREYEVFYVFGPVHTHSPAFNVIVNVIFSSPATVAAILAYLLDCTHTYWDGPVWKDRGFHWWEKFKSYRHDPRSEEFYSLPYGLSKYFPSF
measurement kind: pKd
Give bare numbers, as −log10 of the molar value.

Fill in the blank: the reported pKd of O=C1O[C@H]([C@@H](O)CO)C(O)=C1O [AsA, ascorbic acid] is ____.
7.09

###

target: OsNAT9 (OsNAT9-GFP) (Oryza sativa, UniProt Q10ET9, S344A); experiment: microscale thermophoresis
Sequence (Q10ET9 1-527 S344A): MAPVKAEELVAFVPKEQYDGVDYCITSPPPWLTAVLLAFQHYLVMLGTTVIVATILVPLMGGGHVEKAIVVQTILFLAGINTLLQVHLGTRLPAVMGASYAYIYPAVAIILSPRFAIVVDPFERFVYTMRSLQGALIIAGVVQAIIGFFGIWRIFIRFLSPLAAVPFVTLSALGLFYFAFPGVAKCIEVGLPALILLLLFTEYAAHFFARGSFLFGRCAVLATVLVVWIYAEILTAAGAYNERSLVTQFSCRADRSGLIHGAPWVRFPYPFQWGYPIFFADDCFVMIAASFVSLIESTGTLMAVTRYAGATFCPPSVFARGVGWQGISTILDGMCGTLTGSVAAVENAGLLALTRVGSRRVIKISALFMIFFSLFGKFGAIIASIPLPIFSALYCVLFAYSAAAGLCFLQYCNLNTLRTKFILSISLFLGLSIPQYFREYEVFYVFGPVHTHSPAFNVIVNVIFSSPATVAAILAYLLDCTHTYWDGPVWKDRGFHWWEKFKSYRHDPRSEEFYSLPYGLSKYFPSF
measurement kind: pKd
Answers are plain numbers, as −log10 of the molar value.

Fill in the blank: the reported pKd of O=C1O[C@H]([C@@H](O)CO)C(O)=C1O is ____.
7.00
